system_under_test: T1, FcRL6, overexpressed on 3T3 cells (UniProt Q6DN72 20-434, limits assumed)
T1 construct: whole, on cells
T1 sequence (looked up): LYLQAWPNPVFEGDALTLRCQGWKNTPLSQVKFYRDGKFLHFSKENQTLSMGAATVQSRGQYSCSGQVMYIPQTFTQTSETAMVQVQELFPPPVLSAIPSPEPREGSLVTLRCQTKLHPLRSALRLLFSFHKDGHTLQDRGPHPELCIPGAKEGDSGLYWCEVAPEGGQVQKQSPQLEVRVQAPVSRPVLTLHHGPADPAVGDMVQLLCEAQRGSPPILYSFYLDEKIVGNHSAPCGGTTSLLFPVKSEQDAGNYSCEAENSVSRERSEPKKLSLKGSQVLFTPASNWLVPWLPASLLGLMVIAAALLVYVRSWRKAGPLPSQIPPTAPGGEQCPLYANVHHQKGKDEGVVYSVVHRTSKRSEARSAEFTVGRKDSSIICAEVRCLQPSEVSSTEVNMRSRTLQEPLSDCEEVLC
test_details: phage clone on 3T3-FcRL6 cells
test_readout: binding result

Task item: Given the binder ET200-029 (scFv, screened as phage clone; entry is VL-linker-VH-His tag-HA tag) scFv: QAVLTQPPSVSVAPGKTARVTCGGNNIGSESVHWYQQKPGQAPVLVIYYDTDRPSGIPERFSGSHSGTTATLTISRVEAGDEADYYCQVWDSSRDHVVFGGGTKLTVLGSRGGGGSGGGGSGGGGSLEMAQVQLVQSGGGVVQPGRSLRLSCAASGFTFSSYAMHWVRQAPGKGLEWVAVISYDGSNKYYADSVKGLFTISRDNSKNTLYLQMNSLRAEDTAVYYCARSYFTSGFYDYWGQGTLVTVSSTSGQAGQHHHHHHGAYPYDVPDYAS , what is its reported binding result?
Reply: no binding

Task item: Given the binder ET200-002 (scFv, screened as phage clone; entry is VL-linker-VH-His tag-HA tag) scFv: NFMLTQPHSVSESPGKTVTISCTRSSGSIASNYVQWYQQRPGSAPTTVIYEDNQRPSGVPDRFSGSIDSSSNSASLTISGLKTEDEADYYCQSYDSSNSVVFGGGTKLTVLGSRGGGGSGGGGSGGGGSLEMAQVQLVQSGTEVKKPGASVRVACKASGYPFNKYDINWVRQAPGQGLEWMGGIIPIFRTTNYAQKFQGRVTITADESTSTAYMELSSLRSEDTAVYYCAREWFYWDIWGQGTLVTVSSTSGQAGQHHHHHHGAYPYDVPDYAS , what is its reported binding result?
Reply: no binding
